- experimental.system: T1, PUF4 RNA-binding domain (Saccharomyces cerevisiae, UniProt P25339 537-888)
- T1 sequence: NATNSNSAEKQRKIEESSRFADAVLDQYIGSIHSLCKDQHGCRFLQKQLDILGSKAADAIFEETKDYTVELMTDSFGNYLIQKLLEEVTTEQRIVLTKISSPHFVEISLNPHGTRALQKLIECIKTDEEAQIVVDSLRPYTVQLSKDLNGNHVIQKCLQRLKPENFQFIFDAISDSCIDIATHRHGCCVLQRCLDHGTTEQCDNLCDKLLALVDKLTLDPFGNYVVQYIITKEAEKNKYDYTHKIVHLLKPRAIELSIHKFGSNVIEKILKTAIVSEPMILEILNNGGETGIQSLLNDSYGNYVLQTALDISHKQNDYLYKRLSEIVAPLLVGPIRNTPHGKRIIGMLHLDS
- assay.overview: Mg; RNA-MaP; 20 mM Na-HEPES pH 7.4, 30 mM KOAc, 0.75 mM MgCl2, 0.1% Tween-20, 5% glycerol, 0.1 mg/mL BSA, 2 mM DTT; 25 C; 0.0125-409.6 nM protein
- condition.info: tags: N-His6-TEV cleaved; C-SNAP kept, Cy3B-labelled; label: tethered on chip by stalled RNA polymerase
Answer each item with its documented Kd.

Ask: Could you share which Kd value was measured for UCUCUUAGUGUAUAUCUCUU (ssRNA) [Ib_S1_P3E.1_K3.1_C3.1_H3.1_[T1A]_[A4G]_A3.1_F3.1_T3.1] ?
Result: 51.9 nM

Ask: Look up Kd for this binder: ACAAACUAUAUAUAUAACACAAAC (ssRNA) [Id_ii_S3_P3E.3_K3.2_C3.2_[C-2T]_[T-1A]_H3.2_A3.1_F3.1_T3.2_[T9A]_[A10C]]
Result: 376 nM

Ask: Consider the binder shown here: Ie_S2_P3E.2_K3.1_C3.2_H3.1_[+1TCC]_A3.1_F3.1_T3.2 (ssRNA) RNA: UUUGAUUAAUAUGAUAUCGUUCUUUCUCUUUCCGUAUAUAUAUUCUUUCUCGAUAUCAUAUUAAUCUUU What is its recorded Kd?
Result: 44.3 nM

Ask: Fill in the blank: the reported Kd of UCUCUUGGUAUAUAUAAUUCUCUU (ssRNA) [Id_ii_S1_P3E.3_K3.2_C3.2_[C-2G]_[T-1G]_H3.2_A3.1_F3.1_T3.2_[T9A]_[A10T]] is ____.
Result: 524 nM

Ask: // lookup Kd for ACAAACAUUAUAUAUAGUACAAAC (ssRNA) [Id_ii_S3_P3E.3_K3.2_C3.2_[C-2A]_H3.2_A3.1_F3.1_T3.2_[T9G]_[A10T]]
Result: 67.5 nM

Ask: Consider the binder Ic_S4_P4E.1_K4.1_C4.1_H4.1_A4.1_[A6C]_[T7G]_F4.1_[T8G]_[A9C]_T4.1 (ssRNA) RNA: UUUGACAACUGAUCGUUCUUUCUUGUAUCGGCUUCUUUCUCGAUCAGUUGUCUUU and give its measured Kd.
Result: > 2300 nM
